Entries and their composite z-score values follow.
Test system: XIP peptide (Xip251-270) binding
assay: small-molecule binders of XIP peptide, primary screen, biochemical, small-molecule microarray, fluorescence 635/667 nm, 0.1 µg/mL protein (AID 1182)
condition-context: fluorescent protein binding, 635 nm, higher = more signal, called active from +8 up or from −8 down
Lab note: record the figure alone, no unit after it.

smiles-input | reported-result
O=C1O[C@H](c2ccccc2)[C@H](c2ccccc2)N2[C@H]1[C@@H](C(=O)O)[C@]1(C(=O)Nc3ccc(C#CCCO)cc31)[C@H]2c1ccc(O)cc1 | 0.207
C=CCNC(=O)[C@H]1[C@@H]2C(=O)O[C@@H](c3ccccc3)[C@@H](c3ccccc3)N2[C@@H](c2ccccc2OCCO)[C@]12C(=O)Nc1ccc(C#CC3=CCCCC3)cc12 | -0.274
CCCCCCC#C[Si](O[C@H](c1ccccc1)c1cn([C@H](CO)Cc2ccccc2)nn1)(C(C)C)C(C)C | 0.207

Briefly, composite z-score measured for `Cc1ccc(S[C@]2(C(=O)NCC(F)(F)F)CC(=O)N(C(C)C)[C@@H]2c2ccc(CO)cc2I)cc1` : -0.268

Briefly, composite z-score measured for `CN(C)CCCNC(=O)[C@@]1(c2ccc([N+](=O)[O-])cc2)CC(=O)N(C2CCCCC2)[C@@H]1c1ccc(CO)cc1I` : -0.117

Briefly, composite z-score measured for `COc1ccc([C@H]2OC[C@@H]3CC4(CC=CC4)C(=O)N32)cc1` : -0.302

###

assay: small-molecule microarray binders of probe aShh, primary screen, biochemical, biotinylated probe, 635/667 nm fluorescence (AID 1114);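 further: probe is biotin-labelled aShh protein from a stem cell growth factor screen; measures binding of labelled protein to compounds printed on the slide; score merges feature fluorescence at 667 nm with signal-to-noise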
condition-context: higher = more signal
Entries and their composite z-score values follow.

Some compounds with known composite z-score results, for comparison:
compound | composite z-score
NCCCCCNC(=O)[C@@H]1C[C@@H]2C(=O)N[C@@H](Cc3ccccc3)C(=O)N2[C@@H]1c1cccc(OCCO)c1 | -0.0652
[N-]=[N+]=Nc1ccccc1C[C@@]1(C(=O)NCCN2CCOCC2)N=C(c2ccc(OCCCO)cc2)O[C@@H]1c1ccccc1 | 0.315
Cc1ccc(C(C)CC(O)C2C=CC3C(=O)N(c4ccccc4)C(=O)C3N2Nc2ccc([N+](=O)[O-])cc2)o1 (configuration not stated) | -0.229

Briefly, composite z-score measured for `CC(C)N1C(=O)c2ccccc2[C@](C)(C(=O)NCc2ccccc2)[C@@H]1c1ccc(CO)cc1` : -0.19

Briefly, composite z-score measured for O=C1NC(=O)C2C1C=CC(C(O)C(c1ccccc1)c1ccccc1)N2Nc1ccc(Cl)cc1Cl (configuration not stated) : 0.234

Briefly, composite z-score measured for `[N-]=[N+]=NCc1ccccc1[C@H]1OC(c2ccc(OCCCO)cc2)=N[C@@]1(Cc1ccccc1)C(=O)NCc1ccccc1` : 0.22

Briefly, composite z-score measured for `COCCOC(=O)N1C(=O)[C@@]2(c3cc(C#Cc4ccc(OC)cc4)ccc31)[C@H](c1ccc(O)cc1)N1[C@H](c3ccccc3)[C@H](c3ccccc3)OC(=O)[C@H]1[C@@H]2C(=O)NC[C@H](O)c1ccccc1` : 0.692

###

assay: A549 cell viability effects, profiling panel, calcein-AM fluorescence, 48 h, basal (AID 1162)
condition-context: higher = more signal
z-score vs -0.3: at or above is t, below is f.

Worked examples, 3 compounds total:
compound | assigned-category
CCCC[C@H]1OB(O)C[C@H]2C1=C(COc1ccccc1)C[C@H]1C(=O)N(C)C(=O)[C@H]12 | t
CN1C2C=C(CCCO)C(C3C(=O)N(C(N)=O)C(=O)C32)C1c1ccc(CN2CCCC2)cc1 (centres undefined) | f
C=CCC(OC(C)=O)[C@@H]1[C@@H](N(Cc2ccc(-c3cccc(C(F)(F)F)c3)o2)C(=O)Cc2ccc(F)cc2)c2cc(OCCCO)ccc2N1C(=O)Cc1ccc(OC)cc1 (some centres undefined) | t

Determine whether measured z-score meets or exceeds -0.3 for `O=C1O[C@H](c2ccccc2)[C@H](c2ccccc2)N2[C@H]1[C@@H](C(=O)O)[C@]1(C(=O)Nc3ccc(C#CCCO)cc31)[C@H]2c1ccc(O)cc1` t

Determine whether measured z-score meets or exceeds -0.3 for [N-]=[N+]=NCc1ccccc1C[C@]1(C(=O)NCC(O)CO)N=C(c2ccc(OCCCO)cc2)O[C@H]1c1ccccc1 (some centres undefined) f

Determine whether measured z-score meets or exceeds -0.3 for `COC(=O)[C@@]1(Cc2ccccc2)[C@H]2c3cc(C(=O)N(C)C)n(CCSCCO)c3C[C@H]2CN1C(=O)c1ccccc1` t

Determine whether measured z-score meets or exceeds -0.3 for `O=C1O[C@H](c2ccccc2)[C@H](c2ccccc2)N2[C@H]1[C@@H](C(=O)Nc1nc3ccccc3s1)[C@]1(C(=O)Nc3ccc(C#CCCO)cc31)[C@H]2c1ccc(OCCO)cc1` t

Determine whether measured z-score meets or exceeds -0.3 for `COCCOC(=O)N1C(=O)[C@@]2(c3cc(C#CCCO)ccc31)[C@H](C(=O)Nc1nc3ccccc3s1)[C@H]1C(=O)O[C@H](c3ccccc3)[C@H](c3ccccc3)N1[C@@H]2c1ccc(OCCO)cc1` f

Determine whether measured z-score meets or exceeds -0.3 for CCN(CC)c1ccc(N2CC=CC34O[C@@H]5/C=C\CCC(C)OC(=O)C5[C@H]3C(=O)N(C(CO)C(C)C)[C@@H]4C2=O)cc1 (some centres undefined) t

###

Entries and their composite z-score values follow.
assay: anti-His antibody binders, primary screen, artefact control for SMM control protein annotation, biochemical, small-molecule microarray, 635 nm fluorescence (AID 1128);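 further: score merges feature fluorescence with signal-to-noise for each printed compound spot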
condition-context: anti-His Alexa647 antibody binding, higher = more signal
Lab note: record the figure alone, no unit after it.

Some compounds with known composite z-score results, for comparison:
compound | reported-result
C#CCN(CC=C(C)C)[C@H](CO)c1ccccc1 | -0.237
COc1ccc(C(=O)Nc2ccc(CN3C(=O)[C@@]4(O[C@@H](CCn5cc([C@H](O)c6ccccc6)nn5)[C@H]([Si](C)(C)c5ccc(OC)cc5)[C@H]4C)c4ccccc43)cc2)cc1 | 0.848

Briefly, composite z-score measured for `CC(C)C[C@@H]1NC(=O)[C@H]2C[C@@H](C(=O)NCCCCCCN(C)C)[C@@H](c3ccc(O)cc3)N2C1=O` : 2.44

Briefly, composite z-score measured for `COCCOC(=O)N1C(=O)[C@@]2(c3ccccc31)[C@H](c1ccccc1OCCO)N1[C@H](c3ccccc3)[C@H](c3ccccc3)OC(=O)[C@H]1[C@@H]2C(=O)Nc1nc2ccccc2s1` : 1.04

Briefly, composite z-score measured for `COC(=O)[C@@]1(Cc2ccc(OC)cc2)[C@H]2c3cc(C(=O)N4CCCC4)n(Cc4ccc(OC)c(OC)c4)c3C[C@H]2CN1C(=O)c1ccccc1` : 2.04

Briefly, composite z-score measured for `COc1ccc(CCNC(=O)[C@@]2(C)c3ccccc3C(=O)N(Cc3cc(F)cc(C(F)(F)F)c3)[C@H]2c2ccc(CO)cc2)cc1` : 0.421

Briefly, composite z-score measured for O=C1OCCC/C=C\[C@H]2OC34C=CCN(Cc5ccccc5)C(=O)[C@H]3N(CCCCCCO)C(=O)[C@@H]4C12 (some centres undefined) : 0.727

Briefly, composite z-score measured for `Cc1ccc(S[C@]2(C(=O)NCC(C)C)CC(=O)N(Cc3cc(C(F)(F)F)cc(C(F)(F)F)c3)[C@@H]2c2ccc(CO)cc2I)cc1` : -0.316

Briefly, composite z-score measured for `NCCCCCNC(=O)[C@@H]1C[C@@H]2C(=O)NCC(=O)N2[C@@H]1c1ccc(O)cc1` : 2.18

Briefly, composite z-score measured for O=C1OCCC/C=C\[C@H]2OC34C=CCN(Cn5nnc6ccccc65)C(=O)[C@H]3N(CCCCCCO)C(=O)[C@@H]4C12 (some centres undefined) : 0.919

Briefly, composite z-score measured for CCOc1cc(C(O)C2C=CC3C(=O)N(c4ccccc4)C(=O)C3N2Nc2ccccc2)ccc1O (centres undefined) : 1.3

Briefly, composite z-score measured for `O=C(NCC(F)(F)F)[C@@H]1c2ccccc2C(=O)N(C2CCCCC2)[C@H]1c1ccc(CO)cc1` : -0.216

Briefly, composite z-score measured for `CCOC(=O)[C@H]1C/C=C/C[C@H](C(=O)OCC)C(=O)O[C@H]2[C@@H](OC)O[C@H](CO)[C@@H](OC(=O)Nc3ccc(C#N)cc3)[C@@H]2OC1=O` : 0.514

Briefly, composite z-score measured for `CC(C)OC(=O)C=C1C[C@@H](c2ccccc2C(F)(F)F)O[C@@H](c2ccccc2C(F)(F)F)O1` : 0.209

Briefly, composite z-score measured for `C=CCOC(=O)[C@H]1[C@@H]2C(=O)O[C@@H](c3ccccc3)[C@@H](c3ccccc3)N2[C@@H](c2ccc(OCCOC(=O)[C@H]3C[C@H]4C(=O)N5CCC[C@H]5C(=O)N4[C@H]3c3ccc(O)cc3)cc2)[C@]12C(=O)Nc1ccccc12` : 0.442

Briefly, composite z-score measured for CC1(C)[C@@H]2CC(C(O)C3C=CC4C(=O)N(c5ccccc5)C(=O)C4N3Nc3ccccc3)=C[C@H]1C2 (some centres undefined) : -0.21

Briefly, composite z-score measured for `COc1cc2c(cc1OC)CN(C(=O)[C@H]1[C@@H]3C(=O)O[C@@H](c4ccccc4)[C@@H](c4ccccc4)N3[C@@H](c3ccc(O)cc3)[C@]13C(=O)Nc1ccc(C#CC4=CCCCC4)cc13)CC2` : 2.11

Briefly, composite z-score measured for `[N-]=[N+]=NCc1ccccc1C[C@]1(C(=O)O)N=C(c2ccc(OCCCO)cc2)O[C@H]1c1ccccc1N=[N+]=[N-]` : 0.906

Briefly, composite z-score measured for `CCCC=C(CCC)[C@@H](NS(=O)(=O)c1cccs1)c1ccc(C(=O)OC)cc1` : 1.16
